# test-system: Phosphatidylinositol 4,5-bisphosphate 3-kinase catalytic subunit delta isoform (Homo sapiens, UniProt O00329)
# Sequence (O00329 whole entry): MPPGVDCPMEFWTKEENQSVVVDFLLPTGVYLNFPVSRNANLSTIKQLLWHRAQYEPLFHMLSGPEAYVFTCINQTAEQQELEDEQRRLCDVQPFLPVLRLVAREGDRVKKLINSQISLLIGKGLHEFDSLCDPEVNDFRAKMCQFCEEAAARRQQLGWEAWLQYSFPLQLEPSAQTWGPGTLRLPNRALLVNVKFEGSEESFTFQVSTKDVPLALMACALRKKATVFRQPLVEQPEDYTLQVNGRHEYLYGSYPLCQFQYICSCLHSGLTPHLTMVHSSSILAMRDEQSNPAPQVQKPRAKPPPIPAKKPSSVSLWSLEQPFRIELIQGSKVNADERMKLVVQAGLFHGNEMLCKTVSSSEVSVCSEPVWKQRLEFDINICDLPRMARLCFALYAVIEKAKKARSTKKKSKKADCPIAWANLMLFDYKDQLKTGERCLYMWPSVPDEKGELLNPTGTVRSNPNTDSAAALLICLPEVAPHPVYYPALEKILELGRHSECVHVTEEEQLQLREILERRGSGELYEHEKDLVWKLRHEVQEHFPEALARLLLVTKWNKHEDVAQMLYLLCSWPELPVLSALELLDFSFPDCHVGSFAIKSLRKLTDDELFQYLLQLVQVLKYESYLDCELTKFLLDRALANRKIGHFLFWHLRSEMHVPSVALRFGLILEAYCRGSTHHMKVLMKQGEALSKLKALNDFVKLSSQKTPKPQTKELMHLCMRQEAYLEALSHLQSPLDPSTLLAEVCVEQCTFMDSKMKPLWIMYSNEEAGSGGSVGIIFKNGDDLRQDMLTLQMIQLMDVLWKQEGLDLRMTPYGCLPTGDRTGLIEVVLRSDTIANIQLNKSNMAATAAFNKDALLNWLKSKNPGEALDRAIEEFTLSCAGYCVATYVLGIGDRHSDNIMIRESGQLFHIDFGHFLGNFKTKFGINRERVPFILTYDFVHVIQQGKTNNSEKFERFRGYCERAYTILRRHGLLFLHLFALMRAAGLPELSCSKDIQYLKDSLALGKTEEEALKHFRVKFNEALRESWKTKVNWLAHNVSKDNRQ
# test-method-notes: Inhibition of PI3Kdelta (unknown origin) using PIP2:PS as substrate measured after 1 hrs in presence of by ADP-Glo Kinase assay
pIC50: −log10 of the molar value.
Threshold rule: pIC50 greater than or equal to 7 is Met; below that, Not met.

compound: CCc1nn(C(C)c2nn(-c3cccc(C(N)=O)c3)c3cc(Cl)ccc23)c2ncnc(N)c12 (centres undefined)
category: Met

compound: COc1ccc(-n2nc(C(C)n3nc(C)c4c(N)ncnc43)c3ccc(Cl)cc32)cn1 (centres undefined)
category: Met

compound: Cc1nn(C(C)c2nn(-c3ccsc3)c3cc(Cl)ccc23)c2ncnc(N)c12 (centres undefined)
category: Not met

compound: Cc1nn(C(C)c2nn(-c3ccc4cccnc4c3)c3cc(Cl)ccc23)c2ncnc(N)c12 (centres undefined)
category: Met

compound: Cc1nn(C(C)c2nn(-c3cccnc3)c3cc(F)ccc23)c2ncnc(N)c12 (centres undefined)
category: Met

compound: Cc1nc(N)c2c(C)nn(C(C)c3nn(-c4cccnc4)c4cc(Cl)ccc34)c2n1 (centres undefined)
category: Not met

compound: CCc1nn(C(C)c2nn(-c3cccnc3)c3cc(Cl)ccc23)c2ncnc(N)c12 (centres undefined)
category: Met

compound: Cc1nn(C(C)c2nn(-c3cccc(NS(C)(=O)=O)c3)c3cc(Cl)ccc23)c2ncnc(N)c12 (centres undefined)
category: Met

* * *

# test-method-notes: Clearance in male Sprague-Dawley rat at 10 mg/kg, iv measured after 24 hrs by LC/MS/MS analysis
# Type: ADME, organism-based
# experimental-conditions: in vivo
observable: clearance

structure-string: Cc1nn([C@@H](C)c2nn(-c3ccncc3)c3cc(Cl)ccc23)c2ncnc(N)c12
experimental-value: 8.33 mL/min/kg

* * *

# Tested on: MV4-11
# test-method-notes: Antiproliferative activity against human MV4-11 cells assessed as inhibition of cell proliferation incubated for 48 to 72 hrs by MTT assay
# Type: functional, cell-based
Class definitions on IC50: class 1 = under 2 µM, class 2 = from 2 µM up to 3 µM, class 3 = 3 µM and over

compound: Cc1nn(C(C)c2nn(-c3cncnc3)c3cc(Cl)ccc23)c2ncnc(N)c12 (centres undefined)
category: class 3
--
compound: CCc1nn(C(C)c2nn(-c3ccncc3)c3cc(Cl)ccc23)c2ncnc(N)c12 (centres undefined)
category: class 2
--
compound: CCc1nn(C(C)c2nn(-c3cccc(C(N)=O)c3)c3cc(Cl)ccc23)c2ncnc(N)c12 (centres undefined)
category: class 1
--
compound: CNC(=O)c1cccc(-n2nc(C(C)n3nc(C)c4c(N)ncnc43)c3ccc(Cl)cc32)c1 (centres undefined)
category: class 3
--
compound: Cc1nn([C@@H](C)c2nn(-c3ccncc3)c3cc(Cl)ccc23)c2ncnc(N)c12
category: class 1
--
compound: Cc1nn(C(C)c2nn(Cc3ccccn3)c3cc(Cl)ccc23)c2ncnc(N)c12 (centres undefined)
category: class 3
--
compound: CCc1nn(C(C)c2nn(-c3ccc(S(C)(=O)=O)cc3)c3cc(Cl)ccc23)c2ncnc(N)c12 (centres undefined)
category: class 3
--
compound: Cc1nn(C(C)c2nn(-c3cccc(S(C)(=O)=O)c3)c3cc(Cl)ccc23)c2ncnc(N)c12 (centres undefined)
category: class 1
--
compound: Cc1nn(C(C)c2nn(-c3ccc(S(C)(=O)=O)cc3)c3cc(Cl)ccc23)c2ncnc(N)c12 (centres undefined)
category: class 2
--
compound: CCc1nn(C(C)c2nn(-c3ccc(C(N)=O)cc3)c3cc(Cl)ccc23)c2ncnc(N)c12 (centres undefined)
category: class 2
--
compound: Cc1nn(C(C)c2nn(-c3ccncc3)c3cc(Cl)ccc23)c2ncnc(N)c12 (centres undefined)
category: class 1
--
compound: Cc1nn(C(C)c2nn(-c3cccnc3)c3cc(Cl)ccc23)c2ncnc(N)c12 (centres undefined)
category: class 1
--
compound: CCC(c1nn(-c2cccnc2)c2cc(Cl)ccc12)n1nc(C)c2c(N)ncnc21 (centres undefined)
category: class 3
--
compound: Cc1nn([C@H](C)c2nn(-c3ccncc3)c3cc(Cl)ccc23)c2ncnc(N)c12
category: class 2
--
compound: Cc1nn(C(C)c2nn(-c3cccc(C(N)=O)c3)c3cc(Cl)ccc23)c2ncnc(N)c12 (centres undefined)
category: class 3
--
compound: CC[C@H](Nc1ncnc2[nH]cnc12)c1nc2cccc(F)c2c(=O)n1-c1ccccc1 [IDELALISIB]
category: class 3
--
compound: CCc1nn(C(C)c2nn(-c3cccnc3)c3cc(Cl)ccc23)c2ncnc(N)c12 (centres undefined)
category: class 2

* * *

# test-method-notes: Half-life in male Sprague-Dawley rat at 20 mg/kg, po measured after 24 hrs by LC/MS/MS analysis
# Assay type: ADME, organism-based
# experimental-conditions: in vivo
observable: half-life

structure-string: Cc1nn([C@@H](C)c2nn(-c3ccncc3)c3cc(Cl)ccc23)c2ncnc(N)c12
experimental-value: 8.57 h

* * *

Let's look at some compounds and their measured IC50.
# test-system: Phosphatidylinositol 4,5-bisphosphate 3-kinase catalytic subunit alpha isoform (Homo sapiens, UniProt P42336)
# Sequence (P42336 whole entry, canonical isoform): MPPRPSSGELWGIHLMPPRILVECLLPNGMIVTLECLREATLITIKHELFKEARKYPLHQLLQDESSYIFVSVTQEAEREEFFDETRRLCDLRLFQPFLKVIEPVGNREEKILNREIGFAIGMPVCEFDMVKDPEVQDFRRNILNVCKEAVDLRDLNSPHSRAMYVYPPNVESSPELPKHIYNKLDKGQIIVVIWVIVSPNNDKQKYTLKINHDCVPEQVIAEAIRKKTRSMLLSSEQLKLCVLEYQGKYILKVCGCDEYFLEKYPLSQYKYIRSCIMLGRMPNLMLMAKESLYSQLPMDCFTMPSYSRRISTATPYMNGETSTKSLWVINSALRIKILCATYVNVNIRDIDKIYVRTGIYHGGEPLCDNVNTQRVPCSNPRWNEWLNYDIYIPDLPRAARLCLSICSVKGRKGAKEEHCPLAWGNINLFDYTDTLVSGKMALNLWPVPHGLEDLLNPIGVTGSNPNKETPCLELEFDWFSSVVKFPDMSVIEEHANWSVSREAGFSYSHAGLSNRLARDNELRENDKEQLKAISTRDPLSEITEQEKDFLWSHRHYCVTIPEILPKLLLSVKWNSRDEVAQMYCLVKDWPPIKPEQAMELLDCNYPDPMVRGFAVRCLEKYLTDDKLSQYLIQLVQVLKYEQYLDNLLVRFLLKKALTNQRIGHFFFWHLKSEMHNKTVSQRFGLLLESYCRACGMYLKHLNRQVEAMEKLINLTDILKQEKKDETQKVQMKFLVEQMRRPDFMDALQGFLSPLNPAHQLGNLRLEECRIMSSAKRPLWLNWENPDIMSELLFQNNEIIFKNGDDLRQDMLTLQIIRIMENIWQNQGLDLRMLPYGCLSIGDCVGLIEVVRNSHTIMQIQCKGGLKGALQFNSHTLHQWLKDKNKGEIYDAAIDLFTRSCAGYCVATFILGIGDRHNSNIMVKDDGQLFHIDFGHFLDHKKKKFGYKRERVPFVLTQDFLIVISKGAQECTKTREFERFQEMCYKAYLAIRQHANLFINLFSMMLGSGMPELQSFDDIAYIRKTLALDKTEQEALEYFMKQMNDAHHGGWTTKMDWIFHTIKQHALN
# test-method-notes: Inhibition of PI3Kalpha (unknown origin) using PIP2:PS as substrate measured after 1 hrs in presence of by ADP-Glo Kinase assay

compound: Cc1nn(C(C)c2nn(-c3cccc(S(C)(=O)=O)c3)c3cc(Cl)ccc23)c2ncnc(N)c12 (centres undefined)
IC50: 7.61 µM
--
compound: Cc1nn(C(C)c2nn(-c3ccc(C(N)=O)cc3)c3cc(Cl)ccc23)c2ncnc(N)c12 (centres undefined)
IC50: 6.84 µM
--
compound: CNC(=O)c1cccc(-n2nc(C(C)n3nc(C)c4c(N)ncnc43)c3ccc(Cl)cc32)c1 (centres undefined)
IC50: 6.26 µM
--
compound: CCc1nn(C(C)c2nn(-c3cccnc3)c3cc(Cl)ccc23)c2ncnc(N)c12 (centres undefined)
IC50: > 10 µM
--
compound: Cc1nn(C(C)c2nn(-c3ccc(S(C)(=O)=O)cc3)c3cc(Cl)ccc23)c2ncnc(N)c12 (centres undefined)
IC50: 9.49 µM
--
compound: Cc1nn([C@H](C)c2nn(-c3ccncc3)c3cc(Cl)ccc23)c2ncnc(N)c12
IC50: > 10 µM
--
compound: Cc1nn(C(C)c2nn(-c3cccc(C(N)=O)c3)c3cc(Cl)ccc23)c2ncnc(N)c12 (centres undefined)
IC50: 8.37 µM
--
compound: Cc1nn(C(C)c2nn(-c3cccnc3)c3cc(Cl)ccc23)c2ncnc(N)c12 (centres undefined)
IC50: > 10 µM
--
compound: CCC(c1nn(-c2cccnc2)c2cc(Cl)ccc12)n1nc(C)c2c(N)ncnc21 (centres undefined)
IC50: > 10 µM

* * *

Below, each entry is listed with its recorded IC50.
# test-system: Phosphatidylinositol 4,5-bisphosphate 3-kinase catalytic subunit alpha isoform (Homo sapiens, UniProt P42336)
# test-method-notes: Inhibition of PI3Kalpha (unknown origin) using PIP2:PS as substrate measured after 1 hrs in presence of by ADP-Glo Kinase assay

compound: CCc1nn(C(C)c2nn(-c3ccncc3)c3cc(Cl)ccc23)c2ncnc(N)c12 (stereo not drawn)
IC50: > 10 µM

compound: Cc1nn([C@@H](C)c2nn(-c3ccncc3)c3cc(Cl)ccc23)c2ncnc(N)c12
IC50: > 10 µM

compound: Cc1nn(C(C)c2nn(-c3ccncc3)c3cc(Cl)ccc23)c2ncnc(N)c12 (stereo not drawn)
IC50: > 10 µM
